TARGET OF ASSAY: T1, HLA-A*01:01_… (HLA-PEPTIDE target G2), recombinant biotinylated complex (human, enzymatically biotinylated (BirA))
T1 construct: also called G2-pHLA
TEST DETAILS: BLI, pHLA on sensor, Fab titrated, 1:1 model
Rule: measured koff below 0.03 s⁻¹ gets condition met; anything equal to or greater than 0.03 s⁻¹ gets condition not met.

koff under 0.03 s⁻¹? Item: G2(2A11) Fab (Fab, V domains shown, Fab) VH: EVQLLESGAEVKKPGASVKVSCKASGYTFTTYDLAWVRQAPGQGLEWMGWINPNSGGTNYAQKFQGRVTMTRDTSTSTVYMELSSLRSEDTAVYYCARANWLDYWGQGTLVTVSS VL: DIQMTQSPSSLSASVGDRVTITCRASQDISRWLAWYQQKPGKAPKLLIYAASRLQAGVPSRFSGSGSGTDFTLTISSLQPEDFATYYCQQSYSTPYSFGQGTKLEIK condition met

koff under 0.03 s⁻¹? Item: G2(2A03) Fab (Fab, V domains shown, Fab) VH: QVQLVQSGAEVKKPGASVKVSCKASGYTFTSYTVNWVRQAPGQGLEWMGWINPNSGGTKYAQNFQGRVTMTRDTSTSTVYMELSSLRSEDTAVYYCARGGGGALDYWGQGTLVTVSS VL: DIQMTQSPSSLSASVGDRVTITCRASQSISSWLAWYQQKPGKAPKLLIYAASTLQSGVPSRFSGSGSGTDFTLTISSLQPEDFATYYCQQSYLPPYSFGQGTKLEIK condition not met

koff under 0.03 s⁻¹? Item: G2(1H11) Fab (Fab, V domains shown, Fab) VH: QVQLVQSGAEVKKPGASVKVSCKASGYTFTNYYMHWVRQAPGQGLEWMGMINPSGGGTSYAQKFQGRVTMTRDTSTSTVYMELSSLRSEDTAVYYCARGNPWELRLDYWGQGTLVTVSS VL: DIQMTQSPSSLSASVGDRVTITCQASQDISNYLNWYQQKPGKAPKLLIYAASSLQSGVPSRFSGSGSGTDFTLTISSLQPEDFATYYCQQYYSYPFTFGPGTKVDIK condition met

koff under 0.03 s⁻¹? Item: G2(1H01) Fab (Fab, V domains shown, Fab) VH: QVQLVQSGAEVKKPGASVKVSCKASGYTFTRYTINWVRQAPGQGLEWMGWINPNSGGTNYAQKFQGRVTMTRDTSTSTVYMELSSLRSEDTAVYYCARDFVGYDDWGQGTLVTVSS VL: DIQMTQSPSSLSASVGDRVTITCRASQSVGNWLAWYQQKPGKAPKLLIYGASSLQTGVPSRFSGSGSGTDFTLTISSLQPEDFATYYCQQSYSAPYTFGQGTKVEIK condition met

koff under 0.03 s⁻¹? Item: G2(1B12) Fab (Fab, V domains shown, Fab) VH: QVQLVQSGAEVKKPGASVKVSCKASGYTFTSYGITWVRQAPGQGLEWMGWINPNSGGTNYAQKFQGRVTMTRDTSTSTVYMELSSLRSEDTAVYYCARDYGDLDYWGQGTLVTVSS VL: DIQMTQSPSSLSASVGDRVTITCRASQNIGNWLAWYQQKPGKAPKLLIYAASTLQTGVPSRFSGSGSGTDFTLTISSLQPEDFATYYCQQSYSAPYSFGQGTKLEIK condition met

koff under 0.03 s⁻¹? Item: G2(1B06) Fab (Fab, V domains shown, Fab) VH: QVQLVQSGAEVKKPGASVKVSCKASGGTFSNYILSWVRQAPGQGLEWMGWINPDSGGTNYAQKFQGRVTMTRDTSTSTVYMELSSLRSEDTAVYYCARGSYGMDVWGQGTTVTVSS VL: DIQMTQSPSSLSASVGDRVTITCRASQSISRWLAWYQQKPGKAPKLLIYAASSLQSGVPSRFSGSGSGTDFTLTISSLQPEDFATYYCQQSYSTPYTFGQGTKLEIK condition not met
